- target: ZFP SBS#948 (synthetic)
- Sequence (chain, as listed by the source): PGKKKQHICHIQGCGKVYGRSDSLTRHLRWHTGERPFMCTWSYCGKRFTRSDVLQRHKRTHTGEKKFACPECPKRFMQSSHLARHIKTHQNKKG
- method.description: EMSA
- condition.info: tags: MBP fusion
property.label: Kd
Please don't drop the unit; write it after the number.

Record GGTGCGGTG (dsDNA) DNA 1: GGTGCGGTG DNA 2: CACCGCACC , field Kd: 0.017 nM

Ref: patent US20030068675
